- Subject of test: ecLeuRS D342E (Escherichia coli, UniProt P07813, D342E)
- Sequence (P07813 whole entry D342E): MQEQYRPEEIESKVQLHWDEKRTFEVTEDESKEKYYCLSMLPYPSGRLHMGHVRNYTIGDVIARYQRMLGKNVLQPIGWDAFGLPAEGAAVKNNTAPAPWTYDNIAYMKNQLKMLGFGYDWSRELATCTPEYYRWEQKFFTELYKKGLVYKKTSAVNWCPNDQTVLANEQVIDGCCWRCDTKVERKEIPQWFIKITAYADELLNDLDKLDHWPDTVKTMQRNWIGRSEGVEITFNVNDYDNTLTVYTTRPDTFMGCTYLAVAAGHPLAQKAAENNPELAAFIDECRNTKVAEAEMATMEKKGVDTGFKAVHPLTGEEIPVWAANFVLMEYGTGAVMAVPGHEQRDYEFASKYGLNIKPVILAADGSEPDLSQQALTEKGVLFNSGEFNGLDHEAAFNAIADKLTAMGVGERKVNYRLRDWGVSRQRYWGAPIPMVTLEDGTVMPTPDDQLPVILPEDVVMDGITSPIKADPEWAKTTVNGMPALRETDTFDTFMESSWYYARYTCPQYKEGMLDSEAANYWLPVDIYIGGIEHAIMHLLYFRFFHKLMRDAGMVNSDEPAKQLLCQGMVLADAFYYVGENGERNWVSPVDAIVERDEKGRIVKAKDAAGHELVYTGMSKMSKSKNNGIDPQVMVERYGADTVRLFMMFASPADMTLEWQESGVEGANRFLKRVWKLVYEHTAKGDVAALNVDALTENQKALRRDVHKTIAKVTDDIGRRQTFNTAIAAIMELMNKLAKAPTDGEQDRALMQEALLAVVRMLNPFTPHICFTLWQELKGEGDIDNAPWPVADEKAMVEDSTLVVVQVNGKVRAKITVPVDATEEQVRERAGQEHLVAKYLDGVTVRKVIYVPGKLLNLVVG
- Assay: biochemical
- Assay type: biochemical
- Test parameters: IC50, 1 h preincubation
Metric: pIC50
Would you please state pIC50, meaning minus log10 of the concentration in mol/L, as a bare number?

Input line: Report pIC50 for NC[C@H]1OB(O)c2c(OCCO)ccc(Cl)c21 please.
Output line: 7.70

----------
- Subject of test: ecLeuRS (Escherichia coli, UniProt P07813)
- Sequence (P07813 whole entry): as the sequence (P07813 whole entry D342E) above, with E342D counted along it
Metric: pIC50
Would you please state pIC50, meaning minus log10 of the concentration in mol/L, as a bare number?

Input line: Value wanted: pIC50 (ecLeuRS (Escherichia coli, UniProt P07813)) of entry NC[C@H]1OB(O)c2c(OCCO)ccc(Cl)c21
Output line: 8.70

----------
- Subject of test: ecLeuRS D342E (Escherichia coli, UniProt P07813, D342E)
- Assay: biochemical
Metric: Kd
Don't forget the unit after the value.

Input line: Report Kd for NC[C@H]1OB(O)c2c(OCCO)ccc(Cl)c21 please.
Output line: 1700 nM

----------
- Subject of test: ecLeuRS (Escherichia coli, UniProt P07813)
- Assay: SPR single-cycle kinetics, BAP-ecLeuRS in the presence of AMP
Metric: Kd (nM)
The figure you give is taken to be in nM; do not add the unit.

Input line: Report Kd for NC[C@H]1OB(O)c2c(OCCO)ccc(Cl)c21 [Ganfeborole] please.
Output line: 17

Input line: Report Kd for NC[C@H]1OB(O)c2c(OCCCO)cccc21 [Epetraborole] please.
Output line: 1100

----------
- Subject of test: ecLeuRS D342E (Escherichia coli, UniProt P07813, D342E)
- Assay: biochemical
- Format: biochemical
- Test parameters: IC50, 20 min preincubation
Metric: pIC50
Would you please state pIC50, meaning minus log10 of the concentration in mol/L, as a bare number?

Input line: Report pIC50 for NC[C@H]1OB(O)c2c(OCCO)ccc(Cl)c21 [Ganfeborole] please.
Output line: 7.22

----------
- Subject of test: mtLeuRS (Mycobacterium tuberculosis, UniProt P9WFV1)
- Sequence (P9WFV1 whole entry): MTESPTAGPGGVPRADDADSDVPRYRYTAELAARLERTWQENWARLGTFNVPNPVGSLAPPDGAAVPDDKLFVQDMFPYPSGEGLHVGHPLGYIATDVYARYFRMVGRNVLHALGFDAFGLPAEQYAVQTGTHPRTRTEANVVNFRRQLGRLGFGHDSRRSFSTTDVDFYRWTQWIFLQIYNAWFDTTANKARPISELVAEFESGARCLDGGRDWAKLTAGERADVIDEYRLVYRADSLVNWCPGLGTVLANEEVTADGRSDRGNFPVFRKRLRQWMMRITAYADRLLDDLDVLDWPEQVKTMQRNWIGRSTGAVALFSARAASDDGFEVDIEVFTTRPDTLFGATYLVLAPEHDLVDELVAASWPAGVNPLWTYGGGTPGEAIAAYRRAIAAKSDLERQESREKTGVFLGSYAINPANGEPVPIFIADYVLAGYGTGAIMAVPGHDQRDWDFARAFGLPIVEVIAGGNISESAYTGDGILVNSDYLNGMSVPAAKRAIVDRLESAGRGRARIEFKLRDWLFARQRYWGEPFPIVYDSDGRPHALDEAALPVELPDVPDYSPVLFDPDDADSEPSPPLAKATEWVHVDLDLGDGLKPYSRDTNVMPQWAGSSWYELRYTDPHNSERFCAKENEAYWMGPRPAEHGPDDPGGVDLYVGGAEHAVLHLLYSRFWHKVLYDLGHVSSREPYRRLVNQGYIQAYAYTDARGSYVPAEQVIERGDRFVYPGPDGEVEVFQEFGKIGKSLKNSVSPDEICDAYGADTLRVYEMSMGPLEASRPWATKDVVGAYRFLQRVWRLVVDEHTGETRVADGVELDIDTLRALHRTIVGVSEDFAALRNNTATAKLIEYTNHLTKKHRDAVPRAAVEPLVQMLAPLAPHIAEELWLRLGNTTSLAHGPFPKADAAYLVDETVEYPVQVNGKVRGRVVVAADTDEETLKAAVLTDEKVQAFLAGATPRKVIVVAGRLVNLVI
Metric: IC50 (nM)
The figure you give is taken to be in nM; do not add the unit.

Input line: Report IC50 for NC[C@H]1OB(O)c2c(OCCO)ccc(Cl)c21 please.
Output line: 1

----------
- Subject of test: ecLeuRS D342E (Escherichia coli, UniProt P07813, D342E)
- Assay: biochemical
- Format: biochemical
- Test parameters: IC50, 2 min preincubation
Metric: IC50 (nM)
The figure you give is taken to be in nM; do not add the unit.

Input line: Value wanted: IC50 (ecLeuRS D342E (Escherichia coli, UniProt P07813, D342E)) of entry NC[C@H]1OB(O)c2c(OCCO)ccc(Cl)c21
Output line: 278
